Taken from ChEMBL document CHEMBL1667749.

So I've got a bunch of compounds here, and I need their logP at 24 h values.
Protocol Summary: Octanol-phosphate buffer partition coefficient, log P of the compound at 5 mg, after 24 hrs by UV spectroscopic analysis
Assay type: physicochemical
One number for each entry.

Example compounds with recorded logP at 24 h:
### Prompt Query (compound): O=C(N/N=C\c1ccc(Oc2ccc(F)cc2)cc1)c1ccncc1 ; field requested: logP at 24 h
### Response 3.5

### Prompt And for O=C(N/N=C\c1ccc(Oc2ccc3ccccc3c2)cc1)c1ccncc1 ?
### Response 4.52

### Prompt And for O=C(N/N=C\c1ccc(Oc2ccc3c(c2)OCO3)cc1)c1ccncc1 ?
### Response 3.2

### Prompt And for Cc1ccc(Oc2ccc(/C=N\NC(=O)c3ccncc3)cc2)cc1 ?
### Response 3.65

### Prompt And for O=C1Nc2ccccc2/C1=N/NC(=O)c1ccncc1 ?
### Response 1.12

Please go through the list and note logP at 24 h for each compound.
1. Cc1cc(Oc2ccc(/C=N\NC(=O)c3ccncc3)cc2)ccc1Cl
2. O=C(N/N=C\c1ccc(Oc2ccc(Cl)cc2)cc1)c1ccncc1
3. O=C(N/N=C\c1ccc(Oc2ccc(Br)cc2)cc1)c1ccncc1
4. O=C(N/N=C\c1ccc(Oc2ccccc2)cc1)c1ccncc1
5. O=C(N/N=C\c1ccc(Oc2ccc([N+](=O)[O-])cc2)cc1)c1ccncc1

### Response
1: 4.21; 2: 3.95; 3: 4.03; 4: 3.37; 5: 3.23
